Molecular target: Tyrosine-protein kinase ABL1 (Homo sapiens, UniProt P00519, H396P)
Test: Inhibition of Abl1 kinase H396P mutant (unknown origin)
QUANTITY MEASURED: IC50 (nM)

Past entries and their recorded results:
- SMILES REPRESENTATION: "CN1CCN(Cc2ccc(NC(=O)Nc3cc(C#Cc4cnc5cnccn45)n(C)n3)cc2C(F)(F)F)CC1"
  TARGET ENTITY: "Tyrosine-protein kinase ABL1 (Homo sapiens, UniProt P00519, H396P)"
  READING UNIT: "nM"
  OBSERVED: 0.3
- SMILES REPRESENTATION: "Cc1ccc(C(=O)Nc2ccc(CN3CCN(C)CC3)c(C(F)(F)F)c2)cc1C#Cc1cncc2nccn12"
  TARGET ENTITY: "Tyrosine-protein kinase ABL1 (Homo sapiens, UniProt P00519, H396P)"
  READING UNIT: "nM"
  OBSERVED: 0.3

1 = CN1CCN(Cc2ccc(NC(=O)Nc3cc(C#Cc4cnc5cccnn45)n(C)n3)cc2C(F)(F)F)CC1
2 = CN1CCN(Cc2ccc(NC(=O)Nc3cc(C#Cc4cncc5nccn45)n(C)n3)cc2C(F)(F)F)CC1
Task: Choose between 1 and 2 : whose measured IC50 value is numerically larger? Mark your selection by writing its label.
Result: 2
(2: 0.7 nM, 1: 0.2 nM)

Hey, just so you know, these numbers are from ChEMBL document CHEMBL2321864.
